target: FGFR3 (UniProt P22607); assay: phosphorylation enrichment, bacterial display (enrichment ratio); higher = better substrate or ligand; peptides without Tyr show the background;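 further: 11-residue human phosphosite peptides and single-mutation variants displayed on the E. coli surface, counted by deep sequencing, each peptide's frequency after selection divided by its frequency in the unselected input library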;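 further: frequency after pTyr selection over input frequency; kinase dosed for 20-30% of maximal phosphorylation in three min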
Sequence (P22607 whole entry, looked up): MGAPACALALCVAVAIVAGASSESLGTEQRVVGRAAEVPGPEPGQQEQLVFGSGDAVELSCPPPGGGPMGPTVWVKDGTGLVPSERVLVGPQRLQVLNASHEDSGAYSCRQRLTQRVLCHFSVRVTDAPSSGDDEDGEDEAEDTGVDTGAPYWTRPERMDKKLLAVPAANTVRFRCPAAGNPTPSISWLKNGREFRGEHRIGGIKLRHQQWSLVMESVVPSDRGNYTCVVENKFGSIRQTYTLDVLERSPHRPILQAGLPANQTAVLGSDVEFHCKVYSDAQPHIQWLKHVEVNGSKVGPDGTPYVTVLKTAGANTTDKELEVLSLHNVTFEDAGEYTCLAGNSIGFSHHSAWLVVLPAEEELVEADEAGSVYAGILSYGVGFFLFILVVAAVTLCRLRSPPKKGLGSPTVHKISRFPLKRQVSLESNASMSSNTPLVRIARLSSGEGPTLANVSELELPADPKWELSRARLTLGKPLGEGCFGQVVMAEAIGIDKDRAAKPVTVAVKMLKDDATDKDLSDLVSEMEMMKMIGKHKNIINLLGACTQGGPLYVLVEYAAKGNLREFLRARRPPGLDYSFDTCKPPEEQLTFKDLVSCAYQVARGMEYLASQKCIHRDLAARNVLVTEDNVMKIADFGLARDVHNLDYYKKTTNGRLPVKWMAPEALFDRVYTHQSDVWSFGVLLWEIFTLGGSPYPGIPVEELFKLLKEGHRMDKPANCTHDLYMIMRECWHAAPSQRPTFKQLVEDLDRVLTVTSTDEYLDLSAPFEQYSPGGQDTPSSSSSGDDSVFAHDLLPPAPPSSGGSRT
Kindly return fulfilled if reported phosphorylation enrichment is no lower than 0.9; return not fulfilled if it is lower.

(Q) Form field: phosphorylation enrichment at least 0.9? Entry: FNNPAYYVLEG [INPPL1_Y986]
(A) fulfilled

(Q) Form field: phosphorylation enrichment at least 0.9? Entry: QQLVAYFSKHT [SRC_Y232_A237T_YF]
(A) fulfilled

(Q) Form field: phosphorylation enrichment at least 0.9? Entry: PIAPVYAASMV [ACAT1_Y331]
(A) not fulfilled

(Q) Form field: phosphorylation enrichment at least 0.9? Entry: QRRYVYYYSYL [PTEN_Y176]
(A) fulfilled

(Q) Form field: phosphorylation enrichment at least 0.9? Entry: RKIMGYSIRTI [IDS_Y490_I485R]
(A) not fulfilled

(Q) Form field: phosphorylation enrichment at least 0.9? Entry: FFRKFYNKSED [RYR1_Y4864]
(A) not fulfilled

(Q) Form field: phosphorylation enrichment at least 0.9? Entry: HNLPIYEGFAL [ACTA1_Y168_V165L_YF]
(A) fulfilled

(Q) Form field: phosphorylation enrichment at least 0.9? Entry: GGGGSYNVFGN [HNRNPA1_Y312_D314V]
(A) not fulfilled

(Q) Form field: phosphorylation enrichment at least 0.9? Entry: LVMFIYAIFGM [SCN1A_Y1684]
(A) fulfilled

(Q) Form field: phosphorylation enrichment at least 0.9? Entry: SGDDGYAKDAK [TENM4_Y1530]
(A) not fulfilled

(Q) Form field: phosphorylation enrichment at least 0.9? Entry: DISEPYEVYRI [IRF8_Y107_K108E]
(A) not fulfilled

(Q) Form field: phosphorylation enrichment at least 0.9? Entry: HVIKLFGACSQ [RET_Y791_Y791F]
(A) fulfilled

(Q) Form field: phosphorylation enrichment at least 0.9? Entry: IVGLLYRLLTE [SETX_Y1978]
(A) fulfilled

(Q) Form field: phosphorylation enrichment at least 0.9? Entry: DPADRYLTEQF [CDKL5_Y286_C291Y_YF]
(A) not fulfilled
